This collection of values is drawn from patent US20210206856A1.

Target: T1, human MAdCAM expressed on cells (human, UniProt Q13477 19-382)
T1 construct: whole, on cells; also called MADCAM1
T1 sequence (looked up): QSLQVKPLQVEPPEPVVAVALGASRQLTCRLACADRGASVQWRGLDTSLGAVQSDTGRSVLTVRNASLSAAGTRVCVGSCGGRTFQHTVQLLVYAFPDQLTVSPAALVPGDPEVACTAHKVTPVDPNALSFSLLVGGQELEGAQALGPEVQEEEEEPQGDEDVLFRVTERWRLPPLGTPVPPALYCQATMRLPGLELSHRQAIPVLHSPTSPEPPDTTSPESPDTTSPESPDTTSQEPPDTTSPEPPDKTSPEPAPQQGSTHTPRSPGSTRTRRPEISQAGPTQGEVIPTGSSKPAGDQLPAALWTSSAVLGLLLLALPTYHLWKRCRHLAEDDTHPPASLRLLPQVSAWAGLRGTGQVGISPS
Test: cell binding

{"Binder": "MAdCAM Antibody Table 2 Clone 13 (antibody, human IgG1, V domains shown) VH: QVQLVQSGAEVKKPGASVKVSCKASGYTFTTYYMHWVRQAPGQGLEWMGGFDPEDGETIYAQKFQGRVTMTRDTSTSTVYMELSSLRSEDTAVYYCARHAVAGAVGAGYYYYGMDVWGQGTMVTVSS VL: DIQMTQSPSSLSASVGDRVTITCRASESISNWLAWYQQKPGKAPKLLIYAASTLQSGVPSRFSGSGSGTDFTLTISSLQPEDFATYYCQQSYSVPFTFGPGTKVDIK", "binding result": "binds"}
{"Binder": "MAdCAM Antibody Table 2 Clone 55 (antibody, human IgG1, V domains shown) VH: EVQLLESGGGLVQPGGSLRLSCAASGFTFDDFAMHWVRQAPGKGLEWVSGISGNGDSRYYADSVKGRFTISRDNSKNTLYLQMNSLRAEDTAVYYCARDASYGGNYGMDVWGQGTTVTVSS VL: DIQMTQSPSSLSASVGDRVTITCQASQDIRNYLNWYQQKPGKAPKLLIYKASTLESGVPSRFSGSGSGTDFTLTISSLQPEDFATYYCQQANSFPLTFGPGTKVDIK", "binding result": "binds"}
